# Test target: hCA IX (Homo sapiens, UniProt Q16790)
# Construct: purchased
# Method notes: CA inhibition by the esterase assay, hCA IX
# Type: biochemical
# Run parameters: ratio of IC50 values
Each entry gets FALSE if its Selectivity Ratio hCA I/hCA IX stays under 800, and TRUE if its Selectivity Ratio hCA I/hCA IX is 800 or above.

Please tell me: is the molecule N[C@@H]1[C@@H](O)[C@H](O)[C@@H](CO)O[C@H]1n1cc(COc2ccc3ccc(=O)oc3c2)nn1 [Compound 10d] at or over 800 in terms of Selectivity Ratio hCA I/hCA IX?
TRUE

Please tell me: is the molecule Cc1cc(=O)oc2cc(OCc3cn([C@H]4O[C@@H](C)[C@H](O)[C@@H](O)[C@H]4O)nn3)ccc12 [Compound 10o] at or over 800 in terms of Selectivity Ratio hCA I/hCA IX?
FALSE

Please tell me: is the molecule Cc1cc(=O)oc2cc(OCc3cn([C@@H]4OC[C@@H](O)[C@H](O)[C@H]4O)nn3)ccc12 [Compound 10m] at or over 800 in terms of Selectivity Ratio hCA I/hCA IX?
FALSE

Please tell me: is the molecule O=c1ccc2ccc(OCc3cn([C@@H]4O[C@H](CO)[C@@H](O)[C@H](O)[C@H]4O)nn3)cc2o1 [Compound 10a] at or over 800 in terms of Selectivity Ratio hCA I/hCA IX?
TRUE

Please tell me: is the molecule Cc1cc(=O)oc2cc(OCc3cn([C@@H]4O[C@H](CO)[C@@H](O)[C@H]4O)nn3)ccc12 [Compound 10p] at or over 800 in terms of Selectivity Ratio hCA I/hCA IX?
FALSE

Please tell me: is the molecule Cc1cc(=O)oc2cc(OCc3cn([C@@H]4O[C@H](CO)[C@@H](O)[C@H](O)[C@H]4O)nn3)ccc12 [Compound 10i] at or over 800 in terms of Selectivity Ratio hCA I/hCA IX?
FALSE

====

Assign pIC50 to each entry below.
# Test target: UniProtKB P00915
# Sequence (P00915 whole entry): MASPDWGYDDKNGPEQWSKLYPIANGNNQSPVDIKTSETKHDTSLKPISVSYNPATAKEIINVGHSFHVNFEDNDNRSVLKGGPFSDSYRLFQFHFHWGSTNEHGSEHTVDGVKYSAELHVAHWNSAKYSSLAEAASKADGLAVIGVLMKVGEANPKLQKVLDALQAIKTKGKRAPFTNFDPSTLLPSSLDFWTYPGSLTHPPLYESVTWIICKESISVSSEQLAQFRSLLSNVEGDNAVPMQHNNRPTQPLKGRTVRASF
# Method notes: CA inhibition by the esterase assay, hCA I
# Run parameters: human recombinant enzyme, 4-nitrophenylacetate as substrate
Kindly note that pIC50 refers to -log10 of the concentration in mol/L and answer with the value alone.

# get_value(readout='pIC50', item= O=c1ccc2ccc(OCc3cn([C@@H]4O[C@H](CO)[C@H](O)[C@H](O)[C@H]4O)nn3)cc2o1 [Compound 10b] )
4.61

# get_value(readout='pIC50', item= Cc1cc(=O)oc2cc(OCc3cn([C@H]4O[C@@H](C)[C@H](O)[C@@H](O)[C@H]4O)nn3)ccc12 [Compound 10o] )
4.24

# get_value(readout='pIC50', item= O=c1ccc2ccc(OCc3cn([C@@H]4O[C@H](CO)[C@@H](O)[C@H](O)[C@H]4O)nn3)cc2o1 [Compound 10a] )
4.48

# get_value(readout='pIC50', item= O=c1ccc2ccc(OCc3cn([C@@H]4O[C@H](CO)[C@@H](O)[C@H](O)[C@@H]4O)nn3)cc2o1 [Compound 10c] )
4.76

# get_value(readout='pIC50', item= Cc1cc(=O)oc2cc(OCc3cn([C@@H]4OC[C@H](O)[C@H](O)[C@H]4O)nn3)ccc12 [Compound 10n] )
4.45

# get_value(readout='pIC50', item= O=c1ccc2ccc(OCc3cn([C@@H]4O[C@H](CO)[C@@H](O)[C@H]4O)nn3)cc2o1 [Compound 10h] )
4.63

# get_value(readout='pIC50', item= Cc1cc(=O)oc2cc(OCc3cn([C@@H]4O[C@H](CO)[C@@H](O)[C@H](O)[C@H]4N)nn3)ccc12 [Compound 10l] )
4.24

# get_value(readout='pIC50', item= C[C@@H]1O[C@H](n2cc(COc3ccc4ccc(=O)oc4c3)nn2)[C@H](O)[C@H](O)[C@H]1O [Compound 10g] )
4.44

# get_value(readout='pIC50', item= Cc1cc(=O)oc2cc(OCc3cn([C@@H]4O[C@H](CO)[C@H](O)[C@H](O)[C@H]4O)nn3)ccc12 [Compound 10j] )
4.36

# get_value(readout='pIC50', item= Cc1cc(=O)oc2cc(OCc3cn([C@@H]4O[C@H](CO)[C@@H](O)[C@H](O)[C@@H]4O)nn3)ccc12 [Compound 10k] )
4.31

# get_value(readout='pIC50', item= O=c1ccc2ccc(OCc3cn([C@@H]4OC[C@@H](O)[C@H](O)[C@H]4O)nn3)cc2o1 [Compound 10e] )
4.37

# get_value(readout='pIC50', item= N[C@@H]1[C@@H](O)[C@H](O)[C@@H](CO)O[C@H]1n1cc(COc2ccc3ccc(=O)oc3c2)nn1 [Compound 10d] )
4.29

# get_value(readout='pIC50', item= Cc1cc(=O)oc2cc(OCc3cn([C@@H]4O[C@H](CO)[C@@H](O)[C@H]4O)nn3)ccc12 [Compound 10p] )
4.20
